Cited source: ChEMBL document CHEMBL1926651

# Test system: L1210
# ASSAY REMARKS: Cytotoxicity against mouse L1210 cells 2 days by coulter counting
# Type: functional
# EXPERIMENTAL CONDITIONS: L1210, 48 h
Below is a list of entries, each paired with its recorded CC50 value.
PARAMETER: CC50 (µM)

molecule="CCOP(=O)(OCC)[C@@H]1C[C@H](n2cc(-c3ccccc3)nn2)ON1C (relative stereo)" inequality_symbol== data_value=172
molecule="CCOP(=O)(OCC)[C@@H]1C[C@@H](n2cc(Cn3cnc4c(N)ncnc43)nn2)ON1C (racemic)" inequality_symbol== data_value=140
molecule="CCOP(=O)(OCC)[C@@H]1C[C@@H](n2cc(Cn3cc(C)c(=O)[nH]c3=O)nn2)ON1C (relative stereo)" inequality_symbol=≥ data_value=250
molecule="CCOP(=O)(OCC)[C@@H]1C[C@@H](n2cc(-c3ccccn3)nn2)ON1C (racemic)" inequality_symbol=≥ data_value=250

----------
# Tested on: L1210
# ASSAY REMARKS: Cytotoxicity against mouse L1210 cells 2 days by coulter counting
# Format: functional
# EXPERIMENTAL CONDITIONS: L1210, 48 h
Collected CC50 values appear next to each entry.
PARAMETER: CC50 (µM)

molecule=CCOP(=O)(OCC)[C@@H]1C[C@H](n2cc(-c3nccn3C)nn2)ON1C parameter=CC50 inequality_symbol=≥ data_value=250
molecule="CCOP(=O)(OCC)[C@@H]1C[C@H](n2cc(-c3ccccn3)nn2)ON1C (relative stereo)" parameter=CC50 inequality_symbol== data_value=206
molecule="CCOP(=O)(OCC)[C@@H]1C[C@@H](n2cc(Cn3ccc(NC(C)=O)nc3=O)nn2)ON1C (relative stereo)" parameter=CC50 inequality_symbol=≥ data_value=250
molecule="CCOP(=O)(OCC)[C@@H]1C[C@H](n2cc(Cn3cc(C)c(=O)[nH]c3=O)nn2)ON1C (racemic)" parameter=CC50 inequality_symbol== data_value=280
molecule="CCOP(=O)(OCC)[C@@H]1C[C@@H](n2cc(-c3ccccc3F)nn2)ON1C (relative stereo)" parameter=CC50 inequality_symbol== data_value=120
molecule="CCOP(=O)(OCC)[C@@H]1C[C@H](n2cc(Cn3ccc(NC(C)=O)nc3=O)nn2)ON1C (relative stereo)" parameter=CC50 inequality_symbol=> data_value=250
molecule="CCOP(=O)(OCC)[C@@H]1C[C@H](n2cc(-c3cccc(F)c3)nn2)ON1C (relative stereo)" parameter=CC50 inequality_symbol== data_value=104
molecule="CCOP(=O)(OCC)[C@@H]1C[C@H](n2cc(-c3ccccc3F)nn2)ON1C (relative stereo)" parameter=CC50 inequality_symbol== data_value=122

----------
# System: HeLa
# ASSAY REMARKS: Cytotoxicity against human HeLa cells assessed as change in cell morphology up to 100 uM
# Type: cell-based
PARAMETER: Activity

molecule="CCOP(=O)(OCC)[C@@H]1C[C@@H](n2cc(-c3ccccc3)nn2)ON1C (racemic)" data_value=Non-toxic
molecule="CCOP(=O)(OCC)[C@@H]1C[C@H](n2cc(-c3cccc(F)c3)nn2)ON1C (relative stereo)" data_value=Non-toxic
molecule="CCOP(=O)(OCC)[C@@H]1C[C@@H](n2cc(-c3cccc(F)c3)nn2)ON1C (racemic)" data_value=Non-toxic
molecule="CCOP(=O)(OCC)[C@@H]1C[C@@H](n2cc(-c3ccccn3)nn2)ON1C (racemic)" data_value=Non-toxic
molecule="CCOP(=O)(OCC)[C@@H]1C[C@@H](n2cc(-c3ccccc3F)nn2)ON1C (relative stereo)" data_value=Non-toxic
molecule="CCOP(=O)(OCC)[C@@H]1C[C@H](n2cc(-c3ccc(F)cc3F)nn2)ON1C (relative stereo)" data_value=Non-toxic
molecule="CCOP(=O)(OCC)[C@@H]1C[C@H](n2cc(-c3ccccn3)nn2)ON1C (relative stereo)" data_value=Non-toxic
molecule="CCOP(=O)(OCC)[C@@H]1C[C@H](n2cc(-c3ccccc3F)nn2)ON1C (relative stereo)" data_value=Non-toxic
molecule="CCOP(=O)(OCC)[C@@H]1C[C@@H](n2cc(-c3ccc(F)cc3F)nn2)ON1C (racemic)" data_value=Non-toxic
molecule="CCOP(=O)(OCC)[C@@H]1C[C@H](n2cc(-c3ccccc3)nn2)ON1C (relative stereo)" data_value=Non-toxic

----------
# System: Feline coronavirus
# ASSAY REMARKS: Antiviral activity against Feline coronavirus infected in CrFK cells assessed as inhibition of viral plaque formation at 250 uM
# Assay type: functional, organism-based
The source made the active and inactive calls. The rule behind the calls is not given here.
PARAMETER: Activity

compound="CCOP(=O)(OCC)[C@@H]1C[C@H](n2cc(Cn3ccc(=O)[nH]c3=O)nn2)ON1C (racemic)" parameter=Activity data_value=inactive
compound=CCOP(=O)(OCC)[C@@H]1C[C@H](n2cc(-c3nccn3C)nn2)ON1C parameter=Activity data_value=inactive
compound="CCOP(=O)(OCC)[C@@H]1C[C@@H](n2cc(-c3ccccc3)nn2)ON1C (racemic)" parameter=Activity data_value=inactive
compound=NC(=O)c1ncn([C@@H]2O[C@H](CO)[C@@H](O)[C@H]2O)n1 parameter=Activity data_value=inactive
compound="CCOP(=O)(OCC)[C@@H]1C[C@@H](n2cc(-c3ccccc3F)nn2)ON1C (relative stereo)" parameter=Activity data_value=inactive
compound=Nc1nc2c(ncn2COCCO)c(=O)[nH]1 parameter=Activity data_value=inactive
compound="CCOP(=O)(OCC)[C@@H]1C[C@@H](n2cc(Cn3cc(C)c(=O)[nH]c3=O)nn2)ON1C (relative stereo)" parameter=Activity data_value=inactive
compound="CCOP(=O)(OCC)[C@@H]1C[C@H](n2cc(-c3ccc(F)cc3F)nn2)ON1C (relative stereo)" parameter=Activity data_value=inactive
compound="CCOP(=O)(OCC)[C@@H]1C[C@H](n2cc(Cn3ccc(NC(C)=O)nc3=O)nn2)ON1C (relative stereo)" parameter=Activity data_value=inactive
compound="CCOP(=O)(OCC)[C@@H]1C[C@@H](n2cc(-c3ccc(F)cc3F)nn2)ON1C (racemic)" parameter=Activity data_value=inactive
compound="CCOP(=O)(OCC)[C@@H]1C[C@@H](n2cc(Cn3ccc(=O)[nH]c3=O)nn2)ON1C (relative stereo)" parameter=Activity data_value=inactive
compound=O=c1[nH]c(=O)n([C@H]2C[C@H](O)[C@@H](CO)O2)cc1/C=C/Br parameter=Activity data_value=inactive
compound="CCOP(=O)(OCC)[C@@H]1C[C@H](n2cc(-c3ccccn3)nn2)ON1C (relative stereo)" parameter=Activity data_value=inactive
compound="CCOP(=O)(OCC)[C@@H]1C[C@H](n2cc(-c3ccccc3F)nn2)ON1C (relative stereo)" parameter=Activity data_value=inactive
compound=CCOP(=O)(OCC)[C@@H]1C[C@@H](n2cc(-c3nccn3C)nn2)ON1C parameter=Activity data_value=inactive
compound="CCOP(=O)(OCC)[C@@H]1C[C@@H](n2cc(C(=O)OC)nn2)ON1C (relative stereo)" parameter=Activity data_value=inactive
compound="CCOP(=O)(OCC)[C@@H]1C[C@H](n2cc(-c3cccc(F)c3)nn2)ON1C (relative stereo)" parameter=Activity data_value=inactive
compound=CCOC(=O)C1=C[C@@H](OC(CC)CC)[C@H](NC(C)=O)[C@@H](N)C1 parameter=Activity data_value=inactive

----------
# ASSAY REMARKS: Cytotoxicity against CRFK cells assessed as change in cell morphology up to 100 uM
# Type: cell-based, Felis catus
# EXPERIMENTAL CONDITIONS: cat
PARAMETER: Activity

compound="CCOP(=O)(OCC)[C@@H]1C[C@@H](n2cc(-c3ccccn3)nn2)ON1C (racemic)" data_value=Non-toxic
compound="CCOP(=O)(OCC)[C@@H]1C[C@@H](n2cc(-c3ccccc3)nn2)ON1C (racemic)" data_value=Non-toxic
compound="CCOP(=O)(OCC)[C@@H]1C[C@H](n2cc(-c3ccc(F)cc3F)nn2)ON1C (relative stereo)" data_value=Non-toxic
compound="CCOP(=O)(OCC)[C@@H]1C[C@H](n2cc(-c3ccccc3F)nn2)ON1C (relative stereo)" data_value=Non-toxic
compound="CCOP(=O)(OCC)[C@@H]1C[C@H](n2cc(-c3ccccc3)nn2)ON1C (relative stereo)" data_value=Non-toxic
compound="CCOP(=O)(OCC)[C@@H]1C[C@@H](n2cc(-c3cccc(F)c3)nn2)ON1C (racemic)" data_value=Non-toxic
compound="CCOP(=O)(OCC)[C@@H]1C[C@@H](n2cc(-c3ccc(F)cc3F)nn2)ON1C (racemic)" data_value=Non-toxic
compound="CCOP(=O)(OCC)[C@@H]1C[C@H](n2cc(-c3cccc(F)c3)nn2)ON1C (relative stereo)" data_value=Non-toxic
compound="CCOP(=O)(OCC)[C@@H]1C[C@H](n2cc(-c3ccccn3)nn2)ON1C (relative stereo)" data_value=Non-toxic
compound="CCOP(=O)(OCC)[C@@H]1C[C@@H](n2cc(-c3ccccc3F)nn2)ON1C (relative stereo)" data_value=Non-toxic
